B1: glmS ribozyme (parent)
chain: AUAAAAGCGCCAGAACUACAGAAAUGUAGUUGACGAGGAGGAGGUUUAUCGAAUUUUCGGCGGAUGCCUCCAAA

Variants of: B1
assay-summary: self-cleavage kobs at 640 uM GlcN6P; higher = faster cleavage; RNA array
assay-conditions: with glucosamine-6-phosphate
Fewer inactive variants are shown than the library holds.
satisfied means recorded self-cleavage kobs at 640 uM GlcN6P is 0.0002 s⁻¹ or above; not satisfied means it is below 0.0002 s⁻¹.

sequence-change	class-name
C8G C16U U57A	not satisfied

Q) Is the recorded value of self-cleavage kobs at 640 uM GlcN6P equal to or greater than 0.0002 s⁻¹ for this variant? A12G A52U G66U
A) not satisfied

Q) Is the recorded value of self-cleavage kobs at 640 uM GlcN6P equal to or greater than 0.0002 s⁻¹ for this variant? A6G A36C G41U
A) not satisfied

Q) Is the recorded value of self-cleavage kobs at 640 uM GlcN6P equal to or greater than 0.0002 s⁻¹ for this variant? A39G U55C
A) satisfied

meta.source: the supplement of paper PMC7125110
